Listed here: items and their measured mMC3R Agonist, percent of the NDP-MSH maximal positive control.
- subject.of.test: mMC3R (Mus musculus)
- assay: AlphaScreen cAMP agonist assay at mMC3R
- cond: Table 1; @ 100 μM
Square brackets hold non-standard residues; d marks the D form. Peptide text beside a SMILES is read from it. Bip = N[C@@H](Cc1ccc(-c2ccccc2)cc1)C(=O)O; dPhe(4-I) = N[C@H](Cc1ccc(I)cc1)C(=O)O; 2Nal = N[C@@H](Cc1ccc2ccccc2c1)C(=O)O; d2Nal = N[C@H](Cc1ccc2ccccc2c1)C(=O)O
# unit: % @ 100 μM | format: bare number

CC(=O)N[C@@H](Cc1ccc2ccccc2c1)C(=O)N[C@@H](CCCNC(=N)N)C(=O)N[C@H](Cc1ccc(I)cc1)C(=O)N[C@H](Cc1ccc2ccccc2c1)C(N)=O [SKY4-48-48, Ac-Nal(2′)-Arg-(pI)DPhe-DNal(2′)-NH2] (Ac-[2Nal]R[dPhe(4-I)][d2Nal]-NH2)
31
CC(=O)N[C@@H](Cc1ccc(-c2ccccc2)cc1)C(=O)N[C@@H](CCCNC(=N)N)C(=O)N[C@H](Cc1ccc(I)cc1)C(=O)N[C@H](Cc1ccc2ccccc2c1)C(N)=O [SKY4-48-44, Ac-Bip-Arg-(pI)DPhe-DNal(2′)-NH2] (Ac-[Bip]R[dPhe(4-I)][d2Nal]-NH2)
32

The observed mMC3R Agonist, percent of the NDP-MSH maximal positive control for CC(=O)N[C@@H](Cc1ccccc1)C(=O)N[C@@H](CCCNC(=N)N)C(=O)N[C@H](Cc1ccc(I)cc1)C(=O)N[C@H](Cc1ccc2ccccc2c1)C(N)=O [SKY4-48-47, Ac-Phe-Arg-(pI)DPhe-DNal(2′)-NH2] (Ac-FR[dPhe(4-I)][d2Nal]-NH2) when tested with mMC3R (Mus musculus) stands at 22

The observed mMC3R Agonist, percent of the NDP-MSH maximal positive control for CC(=O)N[C@@H](Cc1c[nH]cn1)C(=O)N[C@@H](CCCNC(=N)N)C(=O)N[C@H](Cc1ccc(I)cc1)C(=O)N[C@@H](Cc1ccc2ccccc2c1)C(N)=O [SKY4-48-35, Ac-His-Arg-(pI)DPhe-Nal(2′)-NH2] (Ac-HR[dPhe(4-I)][2Nal]-NH2) when tested with mMC3R (Mus musculus) stands at 57

---

Listed here: items and their measured mMC3R (IC50) Fold Diff..
- subject.of.test: mMC3R (Mus musculus, UniProt P33033)
- Sequence (P33033 whole entry): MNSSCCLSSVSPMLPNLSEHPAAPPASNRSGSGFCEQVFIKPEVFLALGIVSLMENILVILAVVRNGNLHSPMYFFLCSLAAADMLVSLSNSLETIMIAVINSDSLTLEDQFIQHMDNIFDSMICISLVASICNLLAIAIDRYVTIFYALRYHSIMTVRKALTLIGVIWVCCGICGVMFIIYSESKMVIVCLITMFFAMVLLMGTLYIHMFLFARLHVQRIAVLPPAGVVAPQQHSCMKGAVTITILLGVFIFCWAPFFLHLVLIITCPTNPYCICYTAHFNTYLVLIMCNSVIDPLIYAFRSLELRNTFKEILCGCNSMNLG
- assay: 125I-NDP-MSH competitive binding assay at mMC3R
- Parameters: expressed in transfected cells
- cond: Table 3; vs Ac-His-DPhe-Arg-Trp-NH2; negative = more potent than control
Square brackets hold non-standard residues; d marks the D form. Peptide text beside a SMILES is read from it. dPhe(4-I) = N[C@H](Cc1ccc(I)cc1)C(=O)O; d2Nal = N[C@H](Cc1ccc2ccccc2c1)C(=O)O; Tic = O=C(O)[C@@H]1Cc2ccccc2CN1
Give your answer as a number; write no unit.

CC(=O)N[C@@H](Cc1ccccc1)C(=O)N[C@@H](CCCNC(=N)N)C(=O)N[C@H](Cc1ccc(I)cc1)C(=O)N1Cc2ccccc2C[C@H]1C(N)=O [SKY4-48-23, Ac-Phe-Arg-(pI)DPhe-Tic-NH2] (Ac-FR[dPhe(4-I)][Tic]-NH2)
-20

Given item CC(=O)N[C@H](Cc1ccc2ccccc2c1)C(=O)N[C@@H](CCCNC(=N)N)C(=O)N[C@H](Cc1ccc(I)cc1)C(=O)N1Cc2ccccc2C[C@H]1C(N)=O [SKY6-24-3, Ac-DNal(2′)-Arg-(pI)DPhe-Tic-NH2] (Ac-[d2Nal]R[dPhe(4-I)][Tic]-NH2) , the value recorded as its mMC3R (IC50) Fold Diff. is -120

---

- subject.of.test: mMC4R (Mus musculus, UniProt P56450)
- Sequence (P56450 whole entry): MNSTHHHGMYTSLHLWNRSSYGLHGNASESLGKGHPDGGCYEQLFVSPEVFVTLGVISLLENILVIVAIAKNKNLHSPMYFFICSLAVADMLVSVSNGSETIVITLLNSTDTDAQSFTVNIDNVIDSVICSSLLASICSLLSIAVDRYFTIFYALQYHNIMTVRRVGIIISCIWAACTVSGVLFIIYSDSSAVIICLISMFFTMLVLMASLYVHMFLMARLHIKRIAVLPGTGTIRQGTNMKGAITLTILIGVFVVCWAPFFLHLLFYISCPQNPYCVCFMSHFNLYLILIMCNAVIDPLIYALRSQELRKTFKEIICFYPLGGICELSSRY
- assay: AlphaScreen cAMP agonist assay at mMC4R
- cond: read-out: mMC4R Agonist, percent of the NDP-MSH maximal positive control
Square brackets hold non-standard residues; d marks the D form. Peptide text beside a SMILES is read from it. Bip = N[C@@H](Cc1ccc(-c2ccccc2)cc1)C(=O)O; dPhe(4-I) = N[C@H](Cc1ccc(I)cc1)C(=O)O; d2Nal = N[C@H](Cc1ccc2ccccc2c1)C(=O)O; Bta = N[C@@H](Cc1csc2ccccc12)C(=O)O; Tic = O=C(O)[C@@H]1Cc2ccccc2CN1
// F strictly below 30% in activation at 100 µM; T otherwise

CC(=O)N[C@@H](Cc1c[nH]cn1)C(=O)N[C@@H](CCCNC(=N)N)C(=O)N[C@H](Cc1ccc(I)cc1)C(=O)N[C@@H](Cc1ccc(-c2ccccc2)cc1)C(N)=O [SKY4-48-3, Ac-His-Arg-(pI)DPhe-Bip-NH2] (Ac-HR[dPhe(4-I)][Bip]-NH2)
T
CC(=O)N[C@@H](Cc1ccc(-c2ccccc2)cc1)C(=O)N[C@@H](CCCNC(=N)N)C(=O)N[C@H](Cc1ccc(I)cc1)C(=O)N[C@@H](Cc1ccc(-c2ccccc2)cc1)C(N)=O [SKY4-48-4, Ac-Bip-Arg-(pI)DPhe-Bip-NH2] (Ac-[Bip]R[dPhe(4-I)][Bip]-NH2)
F
CC(=O)N[C@@H](Cc1c[nH]cn1)C(=O)N[C@@H](CCCNC(=N)N)C(=O)N[C@H](Cc1ccc(I)cc1)C(=O)N[C@H](Cc1ccc2ccccc2c1)C(N)=O [SKY4-48-43, Ac-His-Arg-(pI)DPhe-DNal(2′)-NH2] (Ac-HR[dPhe(4-I)][d2Nal]-NH2)
T

Has `CC(=O)N[C@@H](CCCNC(=N)N)C(=O)N[C@@H](CCCNC(=N)N)C(=O)N[C@H](Cc1ccc(I)cc1)C(=O)N[C@@H](Cc1csc2ccccc12)C(N)=O` a recorded activation at 100 µM greater than or equal to 30%?
F

Has `CC(=O)N[C@@H](CCCNC(=N)N)C(=O)N[C@@H](CCCNC(=N)N)C(=O)N[C@H](Cc1ccc(I)cc1)C(=O)N[C@@H](Cc1ccc(-c2ccccc2)cc1)C(N)=O` a recorded activation at 100 µM greater than or equal to 30%?
T

Has CC(=O)N1Cc2ccccc2C[C@H]1C(=O)N[C@@H](CCCNC(=N)N)C(=O)N[C@H](Cc1ccc(I)cc1)C(=O)N[C@H](Cc1ccc2ccccc2c1)C(N)=O [SKY4-48-46, Ac-Tic-Arg-(pI)DPhe-DNal(2′)-NH2] (Ac-[Tic]R[dPhe(4-I)][d2Nal]-NH2) a recorded activation at 100 µM greater than or equal to 30%?
T

Has CC(=O)N[C@@H](Cc1csc2ccccc12)C(=O)N[C@@H](CCCNC(=N)N)C(=O)N[C@H](Cc1ccc(I)cc1)C(=O)N1Cc2ccccc2C[C@H]1C(N)=O [SKY4-48-21, Ac-3Bal-Arg-(pI)DPhe-Tic-NH2] (Ac-[Bta]R[dPhe(4-I)][Tic]-NH2) a recorded activation at 100 µM greater than or equal to 30%?
T

Has CC(=O)N1Cc2ccccc2C[C@H]1C(=O)N[C@@H](CCCNC(=N)N)C(=O)N[C@H](Cc1ccc(I)cc1)C(=O)N1Cc2ccccc2C[C@H]1C(N)=O [SKY6-24-1, Ac-Tic-Arg-(pI)DPhe-Tic-NH2] (Ac-[Tic]R[dPhe(4-I)][Tic]-NH2) a recorded activation at 100 µM greater than or equal to 30%?
T

---

- subject.of.test: mMC3R (Mus musculus, UniProt P33033)
- assay: AlphaScreen cAMP agonist assay at mMC3R
measured.property: EC50 (µM)
# unit: µM | format: bare number

Given item Ac-SYSMEHRFWGKPV-NH2 [SKY2-125-5] , the value recorded as its EC50 is 5.8

---

- subject.of.test: mMC3R (Mus musculus, UniProt P33033)
- cond: Table 1; Schild analysis, pA2 = -Log(Ki); Full Agonist = full dose-response, No Activity = no shift in EC50
Square brackets hold non-standard residues; d marks the D form. Peptide text beside a SMILES is read from it. Bip = N[C@@H](Cc1ccc(-c2ccccc2)cc1)C(=O)O; dPhe(4-I) = N[C@H](Cc1ccc(I)cc1)C(=O)O; 2Nal = N[C@@H](Cc1ccc2ccccc2c1)C(=O)O; d2Nal = N[C@H](Cc1ccc2ccccc2c1)C(=O)O; Bta = N[C@@H](Cc1csc2ccccc12)C(=O)O; Tic = O=C(O)[C@@H]1Cc2ccccc2CN1
measured.property: mMC3R Antagonist pA2 ± SEM

Use the examples below as a reference point.
CC(=O)N[C@@H](Cc1csc2ccccc12)C(=O)N[C@@H](CCCNC(=N)N)C(=O)N[C@H](Cc1ccc(I)cc1)C(=O)N[C@@H](Cc1ccc(-c2ccccc2)cc1)C(N)=O [SKY4-48-5, Ac-3Bal-Arg-(pI)DPhe-Bip-NH2] (Ac-[Bta]R[dPhe(4-I)][Bip]-NH2)
No Activity
CC(=O)N1Cc2ccccc2C[C@H]1C(=O)N[C@@H](CCCNC(=N)N)C(=O)N[C@H](Cc1ccc(I)cc1)C(=O)N[C@@H](Cc1ccc2ccccc2c1)C(N)=O [SKY4-48-38, Ac-Tic-Arg-(pI)DPhe-Nal(2′)-NH2] (Ac-[Tic]R[dPhe(4-I)][2Nal]-NH2)
No Activity
CC(=O)N[C@H](Cc1ccc2ccccc2c1)C(=O)N[C@@H](CCCNC(=N)N)C(=O)N[C@H](Cc1ccc(I)cc1)C(=O)N[C@@H](Cc1csc2ccccc12)C(N)=O [SKY4-48-17, Ac-DNal(2′)-Arg-(pI)DPhe-3Bal-NH2] (Ac-[d2Nal]R[dPhe(4-I)][Bta]-NH2)
Full Agonist
CC(=O)N1Cc2ccccc2C[C@H]1C(=O)N[C@@H](CCCNC(=N)N)C(=O)N[C@H](Cc1ccc(I)cc1)C(=O)N[C@@H](Cc1csc2ccccc12)C(N)=O [SKY4-48-14, Ac-Tic-Arg-(pI)DPhe-3Bal-NH2] (Ac-[Tic]R[dPhe(4-I)][Bta]-NH2)
Full Agonist
CC(=O)N[C@@H](Cc1ccccc1)C(=O)N[C@@H](CCCNC(=N)N)C(=O)N[C@H](Cc1ccc(I)cc1)C(=O)N[C@@H](Cc1csc2ccccc12)C(N)=O [SKY4-48-15, Ac-Phe-Arg-(pI)DPhe-3Bal-NH2] (Ac-FR[dPhe(4-I)][Bta]-NH2)
Full Agonist
CC(=O)N[C@@H](Cc1ccccc1)C(=O)N[C@@H](CCCNC(=N)N)C(=O)N[C@H](Cc1ccc(I)cc1)C(=O)N[C@@H](Cc1ccc2ccccc2c1)C(N)=O [SKY4-48-39, Ac-Phe-Arg-(pI)DPhe-Nal(2′)-NH2] (Ac-FR[dPhe(4-I)][2Nal]-NH2)
No Activity

Given item CC(=O)N[C@@H](Cc1ccccc1)C(=O)N[C@@H](CCCNC(=N)N)C(=O)N[C@H](Cc1ccc(I)cc1)C(=O)N[C@@H](Cc1ccc(-c2ccccc2)cc1)C(N)=O [SKY4-48-7, Ac-Phe-Arg-(pI)DPhe-Bip-NH2] (Ac-FR[dPhe(4-I)][Bip]-NH2) , the value recorded as its mMC3R Antagonist pA2 ± SEM is No Activity

Given item CC(=O)N[C@@H](Cc1c[nH]cn1)C(=O)N[C@@H](CCCNC(=N)N)C(=O)N[C@H](Cc1ccc(I)cc1)C(=O)N[C@H](Cc1ccc2ccccc2c1)C(N)=O [SKY4-48-43, Ac-His-Arg-(pI)DPhe-DNal(2′)-NH2] (Ac-HR[dPhe(4-I)][d2Nal]-NH2) , the value recorded as its mMC3R Antagonist pA2 ± SEM is Full Agonist
